- testedOn: human GLP-1R (Homo sapiens (Human), UniProt P43220, L260F)
- Sequence (P43220 24-463 L260F): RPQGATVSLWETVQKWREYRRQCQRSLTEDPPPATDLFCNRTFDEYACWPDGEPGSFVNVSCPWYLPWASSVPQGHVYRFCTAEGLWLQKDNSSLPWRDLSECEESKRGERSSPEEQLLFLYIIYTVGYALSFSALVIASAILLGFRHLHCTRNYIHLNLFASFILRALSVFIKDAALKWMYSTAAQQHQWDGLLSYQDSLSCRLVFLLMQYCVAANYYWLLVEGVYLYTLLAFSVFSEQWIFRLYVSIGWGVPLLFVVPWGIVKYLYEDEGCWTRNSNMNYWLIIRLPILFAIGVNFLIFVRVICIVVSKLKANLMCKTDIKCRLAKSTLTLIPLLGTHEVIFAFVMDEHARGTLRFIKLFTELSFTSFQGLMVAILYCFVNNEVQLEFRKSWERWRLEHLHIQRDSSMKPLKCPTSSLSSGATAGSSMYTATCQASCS
- assayProtocol: CHO GLP-1R Clone C6—Assay 2: HTRF cAMP cell-based functional agonist assay (low GLP-1R density)
- testSettings: CHO GLP-1R Clone C6, cAMP HTRF; geometric mean
readoutName: EC50 (nM)

(1) O=C(O)c1ccc2nc(CN3CCN(c4cccc(OCc5ccc(Cl)cc5F)n4)CC3)n(Cc3cnco3)c2c1 [Example 10A-45]
(2) N#Cc1ccc(COc2cccc(C3CCN(Cc4nc5ccc(C(=O)O)cc5n4C[C@@H]4CCCO4)CC3)n2)c(F)c1
(3) N#Cc1ccc(COc2cccc(N3CCN(Cc4nc5ccc(C(=O)O)cc5n4Cc4cnco4)CC3)n2)c(F)c1 [Example 10A-61]
Using the recorded EC50, list the entries above from smallest to largest. Please list the labels in the order you were asked to rank them.
1, 3, 2

----------
- testedOn: human GLP-1R (Homo sapiens (Human), UniProt P43220, L260F)
- assayProtocol: CHO GLP-1R Clone C6—Assay 2: HTRF cAMP cell-based functional agonist assay (low GLP-1R density)
- testSettings: CHO GLP-1R Clone C6; relative to saturating concentration of full agonist GLP-1 (1 μM); arithmetic mean; read-out: Assay 2 Emax (%)
readoutName: Emax (%)

(I) CC(F)(F)Cn1c(CN2CCC(c3cccc(OCc4ccc(Cl)cc4F)n3)CC2)nc2ccc(C(=O)O)cc21 [Example 11A-27]
(II) O=C(O)c1ccc2nc(CN3CCC(c4cccc(OCc5ccc(Cl)cc5F)n4)CC3)n([C@@H]3CCOC3)c2c1 [Example 10A-60]
# return whichever of I and II has the smaller Emax Your choice should be expressed through its label.
II
(II: 66%, I: 98%)

----------
- testedOn: human GLP-1R (Homo sapiens (Human), UniProt P43220, L260F)
- assayProtocol: CHO GLP-1R Clone C6—Assay 2: HTRF cAMP cell-based functional agonist assay (low GLP-1R density)
- testSettings: CHO GLP-1R Clone C6, cAMP HTRF; geometric mean
readoutName: EC50 (nM)

// returns reported EC50 for input COC[C@@H]1C[C@H]1Cn1c(CN2CCC(c3cccc(OCc4ccc(Cl)cc4F)n3)CC2)nc2ccc(C(=O)O)cc21
4100

Input O=C(O)c1ccc2nc(CN3CCC(c4cccc(OCc5ccc(Cl)cc5F)n4)CC3)n(Cc3cn[nH]c3)c2c1 [Example 11A-15]
94

Also check CCn1cncc1Cn1c(CN2CCC(c3cccc(OCc4ccc(C#N)cc4F)n3)CC2)nc2ccc(C(=O)O)cc21 [Example 10A-66]
3.4

Now consider CC[C@H]1CN(c2cccc(OCc3ccc(Cl)cc3F)n2)CCN1Cc1nc2ccc(C(=O)O)cc2n1CCOC [Example 12A-07] .
1200

(a) O=C(O)c1cc2c(cn1)nc(CN1CCC(c3cccc(OCc4ccc(Cl)cc4F)n3)CC1)n2Cc1ncco1
(b) CN1CCC[C@@H]1Cn1c(CN2CCC(c3cccc(OCc4ccc(Cl)cc4F)n3)CC2)nc2ccc(C(=O)O)cc21 [Example 11A-34]
(c) CCn1cncc1Cn1c(CN2CCC(c3cccc(OCc4ccc(F)cc4F)n3)CC2)nc2ccc(C(=O)O)cc21 [Example 10A-32]
Please order the records by their reported EC50, lowest number first. Please respond with the labels ordered as the question requires.
c, a, b

(1) CCn1nncc1Cn1c(CN2CCC(c3cccc(OCc4ccc(C#N)cc4F)n3)CC2)nc2ccc(C(=O)O)cc21 [Example 10A-69]
(2) O=C(O)c1cc2c(cn1)nc(CN1CCC(c3cccc(OCc4ccc(Cl)cc4F)n3)CC1)n2C[C@@H]1CCO1
(3) Cn1nccc1Cn1c(CN2CCC(c3cccc(OCc4ccc(Cl)cc4F)n3)CC2)nc2ccc(C(=O)O)cc21 [Example 11A-21]
(4) C[C@H]1CN(c2cccc(OCc3ccc(C#N)cc3F)n2)CCN1Cc1nc2ccc(C(=O)O)cc2n1C[C@@H]1CCO1 [Example 10A-47]
Kindly order the items shown according to EC50, from the highest value down. List the labels in the requested order.
3, 2, 1, 4
(3: 270 nM, 2: 150 nM, 1: 20 nM, 4: 4.4 nM)

(a) COCCn1c(CN2CCC(c3cccc(OCc4ccccc4)n3)CC2)nc2ccc(C(=O)O)cc21
(b) CCn1cncc1Cn1c(CN2CCN(c3cccc(OCc4ccc(C#N)cc4F)n3)C[C@@H]2C)nc2ccc(C(=O)O)cc21 [Example 10A-63]
For the pair a and b , which entry has the numerically smaller recorded EC50? Lab log: write the label of the selected item as the result.
b
